Where do the numbers come from? From patent US20230372448A1.

# Experimental Target: human GCG receptor (human, UniProt P47871 26-477)
# Sequence (P47871 26-477): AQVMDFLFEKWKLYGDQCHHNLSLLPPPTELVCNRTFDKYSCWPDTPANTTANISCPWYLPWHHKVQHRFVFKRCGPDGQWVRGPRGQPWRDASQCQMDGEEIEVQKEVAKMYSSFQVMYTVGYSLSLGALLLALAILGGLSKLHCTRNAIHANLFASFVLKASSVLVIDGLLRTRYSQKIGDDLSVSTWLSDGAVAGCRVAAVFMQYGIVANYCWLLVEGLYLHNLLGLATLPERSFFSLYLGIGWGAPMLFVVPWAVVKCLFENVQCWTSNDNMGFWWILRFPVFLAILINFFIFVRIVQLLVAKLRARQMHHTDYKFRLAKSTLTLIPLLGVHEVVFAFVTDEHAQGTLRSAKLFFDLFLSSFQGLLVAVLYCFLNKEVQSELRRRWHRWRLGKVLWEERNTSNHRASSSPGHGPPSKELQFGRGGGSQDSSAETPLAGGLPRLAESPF
# Protocol Notes: cell-based or functional assay
Positions of bridges follow the written chain, without caps; N, C: chain ends. Non-standard residues stand in square brackets, D forms with d. No end group written: not given here. *: point of attachment. Acetyl(2-(4-imidazolyl)) = O=C(Cc1c[nH]cn1)*; Aib = CC(C)(N)C(=O)O
Outcome label depends on In vitro activity (%) compared with native peptide: vs Glucagon relative to 10%: at/above gives fulfilled, below gives not fulfilled.

| Binder | Class Assignment |
| --- | --- |
| {Acetyl(2-(4-imidazolyl))}-[Aib]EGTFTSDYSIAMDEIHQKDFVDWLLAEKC (bridge 15-19; not fully specified) [triple agonist of SEQ ID NO: 91] | fulfilled |
| H[Aib]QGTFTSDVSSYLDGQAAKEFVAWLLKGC (not fully specified) [triple agonist of SEQ ID NO: 6] | not fulfilled |
| {Acetyl(2-(4-imidazolyl))}-[Aib]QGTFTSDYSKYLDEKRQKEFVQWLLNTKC (bridge 15-19; not fully specified) [triple agonist of SEQ ID NO: 88] | not fulfilled |
| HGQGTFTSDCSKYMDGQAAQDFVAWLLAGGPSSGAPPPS (ends and bridges not checked) [triple agonist of SEQ ID NO: 45] | not fulfilled |
| Y[Aib]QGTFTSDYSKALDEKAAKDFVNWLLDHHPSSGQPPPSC (bridge 16-20; not fully specified) [triple agonist of SEQ ID NO: 99] | fulfilled |
| Y[Aib]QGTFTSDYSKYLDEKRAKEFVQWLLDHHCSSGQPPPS (bridge 16-20; not fully specified) [triple agonist of SEQ ID NO: 43] | fulfilled |
| H[Aib]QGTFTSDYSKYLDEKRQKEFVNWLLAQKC (bridge 16-20; not fully specified) [triple agonist of SEQ ID NO: 34] | not fulfilled |
